Assay: Pharmacokinetics in CD1 mice, iv and po
Type: in vivo
Conditions: mouse, plasma, iv, 3 mg/kg
endpoint name: AUC(0-inf)

{"columns": ["smiles str", "experimental result"],
 "data": [
  ["CN1CCC(c2ccc(C(=O)Nc3n[nH]c4nc(Nc5ccccc5F)ccc34)cc2)CC1", "1640 ng·h/mL"],
  ["CN1CCC(c2ccc(C(=O)Nc3n[nH]c4cc(Nc5ccccc5F)ccc34)cc2)CC1", "1400 ng·h/mL"]
]}

---

Biological target: FYN (Homo sapiens)
Construct: purchased CarnaBioscience
Sequence (P06241 whole entry): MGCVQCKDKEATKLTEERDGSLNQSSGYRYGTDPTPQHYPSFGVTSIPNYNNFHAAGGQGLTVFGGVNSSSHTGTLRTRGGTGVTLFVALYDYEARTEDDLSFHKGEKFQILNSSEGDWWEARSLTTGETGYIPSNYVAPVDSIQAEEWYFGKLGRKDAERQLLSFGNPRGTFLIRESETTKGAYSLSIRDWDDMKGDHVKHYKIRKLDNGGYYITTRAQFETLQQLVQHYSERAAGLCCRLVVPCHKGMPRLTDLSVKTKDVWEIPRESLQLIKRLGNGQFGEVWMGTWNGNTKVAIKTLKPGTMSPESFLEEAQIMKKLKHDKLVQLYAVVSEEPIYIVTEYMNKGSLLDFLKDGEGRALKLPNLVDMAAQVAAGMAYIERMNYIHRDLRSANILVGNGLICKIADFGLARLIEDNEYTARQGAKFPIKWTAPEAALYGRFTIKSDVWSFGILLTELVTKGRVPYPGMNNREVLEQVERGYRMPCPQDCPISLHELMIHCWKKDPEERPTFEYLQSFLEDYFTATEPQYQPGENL
Experiment: Z'-LYTE in vitro kinase assay, FYN kinase inhibition
Assay type: biochemical
Details: Table 17

{"columns": ["smiles str", "measured on", "FYN kinase inhibition, result in words"],
 "data": [
  ["CN1CCC(c2ccc(C(=O)Nc3n[nH]c4nc(Nc5ccccc5F)ccc34)cc2)CC1", "FYN (Homo sapiens)", "more active"],
  ["Cc1cccc(F)c1Nc1ccc2c(NC(=O)c3ccc(C4CCN(C)CC4)cc3)n[nH]c2c1", "FYN (Homo sapiens)", "more active"],
  ["CN1CCC(c2ccc(C(=O)Nc3n[nH]c4nc(Nc5ccc6c(c5)OCO6)ccc34)cc2)CC1", "FYN (Homo sapiens)", "more active"],
  ["CN1CCC(c2ccc(C(=O)Nc3n[nH]c4cc(Nc5c(F)ccc6c5OCO6)ccc34)cc2)CC1", "FYN (Homo sapiens)", "more active"]
]}
